Experiment: Lipophilicity, log D of the compound in octanol and water at pH 7.4 by shake flask method
Assay type: physicochemical
endpointLabel: logD
The answer should be a number; do not append a unit.

Ask: Reported logD, compound CCN(CC)CCNC(=O)c1c(C)[nH]c(/C=C2\C(=O)Nc3ccc([125I])cc32)c1C : ____
Reply: 2.25
